molecular target: T1, hPDGFRb.mmh (human, UniProt P09619 33-531); assay: SPR, mAb captured, 25 C
T1 construct: Soluble monomeric construct; also called soluble human PDGFR-beta.mmh
T1 sequence (P09619 other isoform, or with tags, fused parts or gaps): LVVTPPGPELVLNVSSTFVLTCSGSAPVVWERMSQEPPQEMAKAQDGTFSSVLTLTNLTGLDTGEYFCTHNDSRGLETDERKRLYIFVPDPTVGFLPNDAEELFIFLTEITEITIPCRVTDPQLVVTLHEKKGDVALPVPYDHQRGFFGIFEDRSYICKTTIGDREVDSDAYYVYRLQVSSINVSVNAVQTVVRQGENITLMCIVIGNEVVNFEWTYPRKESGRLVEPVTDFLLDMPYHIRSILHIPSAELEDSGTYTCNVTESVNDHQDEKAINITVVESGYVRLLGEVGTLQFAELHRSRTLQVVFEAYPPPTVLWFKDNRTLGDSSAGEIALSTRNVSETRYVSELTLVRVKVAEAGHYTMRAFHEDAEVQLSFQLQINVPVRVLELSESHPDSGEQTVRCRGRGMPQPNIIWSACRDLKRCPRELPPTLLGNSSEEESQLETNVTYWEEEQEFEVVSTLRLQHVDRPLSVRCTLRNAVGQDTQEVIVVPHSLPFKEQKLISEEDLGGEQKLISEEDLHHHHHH
reported metric: kon

{"columns": ["binder", "experimental value"],
 "data": [
  ["H4H3374N (antibody, human IgG4, V domains shown, human IgG4 Fc (H4H prefix)) VH: QLQLQESGPGLVKPSETLSLTCTVSGGSITSSSYYWGWIRQPPGKGLEWIGSIYYRGSTNYNPSLKSRVTISVDSSKNQFYLKVSSVTAVDTAVYYCARQNGAARPSWFDPWGQGTLVTVSS VL: EIVLTQSPDTISLSPGERATLSCRASQSISSIYLAWYQQKPGQAPRLLIYGASSRVTGIPDRFSVSGSGTDFTLTISRLEPEDFAVYYCQHYGISPFTFGPGTKVDIR", "283000 M⁻¹ s⁻¹"]
]}

### Prompt Find the measured kon of H4H3104S (antibody, human IgG4, V domains shown, human IgG4 Fc (H4H prefix)) VH: QVQLVESGGGLVQPGGSLRLSCAAAGFTFSHYWMSWVRQAPGKGLEWVATIKKDGSERYYVDSVKGRFTISRDNARNSMYLEMNSLRTEDTAIYYCARDIVTPNTDYYFGMDVWGQGTTVTVSS VL: DIQLTQSPSTLSASVGDRVTITCRASQSFNNWLSWYQQKPGKAPKLLIYMASTLESGVPSRFSGSGSGTDFTLTINSLQPDDFATYYCQQSNSYSRTFGHGTKVEIK and report it.
### Response 428000 M⁻¹ s⁻¹
